Target: Axl (Homo sapiens)
Construct: endogenous in cells; host or cells: HeLa cells
Assay: Phospho-Akt in-cell Western assay (inhibition of Axl activity)
Format: cell-based
Details: inhibition of Axl activity, phospho-Akt in-cell Western assay; Table 1
pIC50: −log10 of the molar value.
Measured pIC50 accompanies every entry in the list below.

// below: answered compounds
INSERT INTO measurements (compound, parameter_measured, reading) VALUES
  ('Nc1nc(Nc2ccc(OCCN3CCCC3)cc2)nn1C(=O)c1cccc(-c2cccs2)c1 [compound 313]', 'pIC50', '> 6.00'),
  ('Nc1nc(Nc2ccc(OCCN3CCCC3)cc2)nn1C(=O)c1cccc(N2CCOCC2)c1 [compound 331]', 'pIC50', '> 6.00');

Alright, here's another compound for you.
[Q] Assign pIC50 to the following record: CC(C)Oc1ccc(C(=O)n2nc(Nc3ccc(OCCCN4CCCC4)cc3)nc2N)cc1 [compound #10]
[A] > 6.00

---

Molecular target: Axl (Homo sapiens, UniProt P30530)
Construct: endogenous in cells; host or cells: HeLa cells
Sequence (P30530 26-894): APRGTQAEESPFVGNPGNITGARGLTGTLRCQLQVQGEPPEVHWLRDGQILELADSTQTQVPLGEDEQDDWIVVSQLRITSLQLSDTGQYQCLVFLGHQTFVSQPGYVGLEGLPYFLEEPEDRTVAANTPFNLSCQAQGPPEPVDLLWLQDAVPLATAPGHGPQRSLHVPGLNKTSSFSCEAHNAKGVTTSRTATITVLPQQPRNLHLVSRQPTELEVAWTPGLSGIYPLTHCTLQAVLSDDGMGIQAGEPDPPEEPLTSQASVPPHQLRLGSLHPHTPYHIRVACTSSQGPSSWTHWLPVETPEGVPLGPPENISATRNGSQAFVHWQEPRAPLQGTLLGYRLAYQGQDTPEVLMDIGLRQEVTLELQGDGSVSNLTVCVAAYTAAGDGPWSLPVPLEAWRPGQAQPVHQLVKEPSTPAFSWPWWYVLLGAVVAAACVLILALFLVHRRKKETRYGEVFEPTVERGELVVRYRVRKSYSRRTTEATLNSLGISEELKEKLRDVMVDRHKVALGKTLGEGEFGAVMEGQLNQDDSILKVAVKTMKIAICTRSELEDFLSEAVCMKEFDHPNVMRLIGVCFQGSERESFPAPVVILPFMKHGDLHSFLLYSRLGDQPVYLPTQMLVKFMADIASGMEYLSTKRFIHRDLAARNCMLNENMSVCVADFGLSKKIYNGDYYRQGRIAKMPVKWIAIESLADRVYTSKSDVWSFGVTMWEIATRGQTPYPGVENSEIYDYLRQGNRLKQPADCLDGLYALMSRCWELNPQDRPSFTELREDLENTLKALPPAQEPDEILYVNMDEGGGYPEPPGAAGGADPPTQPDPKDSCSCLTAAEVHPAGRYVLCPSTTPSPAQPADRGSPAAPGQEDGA
Test: Phospho-Akt in-cell Western assay (inhibition of Axl activity)
Format: cell-based
Conditions: Table 5; Hela cells, Axl antibody cross-linking stimulation, phospho-Akt chemiluminescence
pIC50: −log10 of the molar value.
parameter measured: pIC50

INSERT INTO measurements (molecule, system, reading) VALUES
  ('CC(C)Oc1ccc(C(=O)n2nc(NC3C4C=CC(C4)C3C(N)=O)nc2N)cc1 (centres unmarked) [compound 354]', 'Axl (Homo sapiens, UniProt P30530)', '< 4.70'),
  ('CN(C)c1ccc(C(=O)n2nc(NC3C4C=CC(C4)C3C(N)=O)nc2N)cc1 (centres unmarked) [compound 350]', 'Axl (Homo sapiens, UniProt P30530)', '< 4.70');

[Q] Assign pIC50 to the following record: Cc1cccc(C(=O)n2nc(Nc3ccc4oc(COC5CCCCO5)cc4c3)nc2N)c1 (centres unmarked) [compound 130]
[A] 5.00 to 6.00

[Q] Assign pIC50 to the following record: CC(C)Oc1ccc(C(=O)n2nc(Nc3ccc4c(c3)C(NC(=O)OC(C)(C)C)CCO4)nc2N)cc1 (centres unmarked) [compound 274]
[A] < 4.70

[Q] Assign pIC50 to the following record: Cc1cccc(C(=O)n2nc(Nc3ccc4cnn(C)c4c3)nc2N)c1 [compound 254]
[A] < 4.70

[Q] Assign pIC50 to the following record: Cc1cccc(C(=O)n2nc(Nc3ccc4nn(C)cc4c3)nc2N)c1 [compound 222]
[A] < 4.70

[Q] Assign pIC50 to the following record: Cc1cccc(C(=O)n2nc(Nc3ccc4snc(C)c4c3)nc2N)c1 [compound 260]
[A] < 4.70

[Q] Assign pIC50 to the following record: Cc1cccc(C(=O)n2nc(Nc3ccc4[nH]ncc4c3)nc2N)c1 [compound 154]
[A] 5.00 to 6.00

[Q] Assign pIC50 to the following record: Cc1cccc(C(=O)n2nc(Nc3ccc4c(c3)N(C(=O)OC(C)(C)C)CCO4)nc2N)c1 [compound 206]
[A] < 4.70

[Q] Assign pIC50 to the following record: CC(C)(C)Oc1ccc(C(=O)n2nc(NC3C4C=CC(C4)C3C(N)=O)nc2N)cc1 (centres unmarked) [compound 346]
[A] < 4.70

These entries and their values trace back to patent US8389557B2.
